- System: M. tuberculosis H37Ra
- TEST_DESCRIPTION: microbe, parasite or virus in culture
- Format: cell-based, Mycobacterium tuberculosis
- CONDITIONS_USED: Mycobacterium tuberculosis, H37RA, 168 h, read-out: MIC against M. tuberculosis H37Ra
Give MIC for every item shown.
One number for each entry, in µg/mL.

Examples with their reported MIC follow.
{"columns": ["COMPOUND", "TESTED_TARGET", "MIC (µg/mL)"],
 "data": [
  ["CCn1c2ccccc2c2cc(CNCCNCC(C)O)ccc21 (stereo not shown)", "M. tuberculosis H37Ra", 25],
  ["OC(CNCCC1C=Nc2ccccc21)Cn1c2ccccc2c2ccccc21 (stereo not shown)", "M. tuberculosis H37Ra", 6.2],
  ["OC(CNCc1ccco1)Cn1c(-c2ccccc2)c(-c2ccccc2)c2ccc3ccccc3c21 (stereo not shown)", "M. tuberculosis H37Ra", 3.1]
]}

Value sought for every listed compound: MIC.
1. OC(CN1CCOCC1)Cn1c(-c2ccccc2)c(-c2ccccc2)c2ccc3ccccc3c21 (stereo not shown)
2. Cc1cc(C)c2c(c1)c(-c1ccccc1)c(-c1ccccc1)n2CC(O)CN1CCOCC1 (stereo not shown)
3. OC(CNCc1ccccc1)Cn1c2ccccc2c2ccccc21 (stereo not shown)
4. OCCNCC(O)Cn1c(-c2ccccc2)c(-c2ccccc2)c2ccc3ccccc3c21 (stereo not shown)
5. Cc1ccc2c(c1)c(-c1ccccc1)c(-c1ccccc1)n2CC(O)CNC(CO)(CO)CO (stereo not shown)
6. Cc1ccc2c(c1)c(-c1ccccc1)c(-c1ccccc1)n2CC(O)CN1CCOCC1 (stereo not shown)
7. OC(CNCCOc1ccccc1)Cn1c2ccccc2c2ccccc21 (stereo not shown)
8. Cc1ccc2c(c1)c(-c1ccccc1)c(-c1ccccc1)n2CC(O)CN(CCO)CCO (stereo not shown) [G24, reference compound]

1. 12.5
2. 12.5
3. 12.5
4. 3.1
5. 6.2
6. 12.5
7. 6.2
8. 12.5
